ASSAY COMMENT: yeast display, Sf9 membrane polyspecificity reagent, FACS + sequencing; frameworks hold sequencing errors
MEASURED QUANTITY: polyreactivity (PSR sort gate)

{"ENTRY SEQUENCE": "QVQLVESGGGLVQAGGSLRLSCAASGRIFYFNSMGWYRQAPGKEREFVAAISGSGGDTYYADSVKGRFTISRDIAKNTVYLQMNSLKPEDTAVYYCAAEVYTWGQGTQVTVSS", "REPORTED RESULT": "low polyreactivity"}
{"ENTRY SEQUENCE": "QVQLVESGGGLVQAGGSLRLSCAASGSIFRYYAMGWYRQAPGKERELVASITRRGGSTYYADSVKGRFTISRDNAKNTVYLQMNSLKPEDTAFYYCAAHKTYVREYYWGQGTQVTVSS", "REPORTED RESULT": "high polyreactivity"}
{"ENTRY SEQUENCE": "QVQLVESGGGLVQAGGSLRLSCAASGRIFEINARGWYRQAPGKERELVAAITRSGGSTYYADSVKGRFTISRDNAKNTVYFQMNSLTPEDTAVYYCAARGRYWYSRYYSWGQGTQVTVSS", "REPORTED RESULT": "high polyreactivity"}
{"ENTRY SEQUENCE": "QVQLVESGGGLVQAGGSLRLSCAASGSTFDFYAMGWYRQAPGKERELVARISSGGGRTYYADSVKGRFTISRDNAKNTVYLQLNSLKPEDTAVYYCATDYPWIFGHFLMDYWGQGTQVTVSS", "REPORTED RESULT": "low polyreactivity"}

Next:
# return recorded polyreactivity (PSR sort gate) for input "QVQLVESGGGLVQEGGSLRLSCAASGFSFERNAMGWDRQAPGKERELVATIPWSGTRTNYADSVKGRFTISRDNAKNTVYVQMNSLKPEDTAVYYCAVVVSAPSRESKSTVQMDYWGQGTQVTVSS" high polyreactivity

----------
ASSAY COMMENT: yeast display, Sf9 membrane polyspecificity reagent, FACS + sequencing; frameworks hold sequencing errors
MEASURED QUANTITY: polyreactivity (PSR sort gate)

Below are worked cases with known answers.
{"ENTRY SEQUENCE": "QVQLVESGGGIVQAGGSLRLSCAASGFIFGSYAMGWYRQAPGKERELVAAINSVDRTYYADSVKGRFTISRDNAKNTVYLQMNSLKPEDTAVYYCAATIAPTPGYIIYDYWGQGTQVTVSS", "polyreactivity (PSR sort gate)": "high polyreactivity"}
{"ENTRY SEQUENCE": "QVQLVESGGGLVQAGGSLRLSCAASGITFVFNVMGWSRQAPGKERELVADIRSGGTTNYADSVKGRFTISRDNAKNTVYIQMNSLKPEDTAVYYCAKEKYDYVGDYEVDYWGQGTQVTVSS", "polyreactivity (PSR sort gate)": "low polyreactivity"}
{"ENTRY SEQUENCE": "QVQLVESGGGLVQAGGSLRLSCAASGSTFEWNAMGWYRQAPGKERELVAAISWRTTRTYYADSVKGRFTISRDNAKNTVYLQMNSLKPEDTAVYYCAVVTSPYYGGYEYWGQGTQVTVSS", "polyreactivity (PSR sort gate)": "high polyreactivity"}
{"ENTRY SEQUENCE": "QVQLVESGGGLVQAGGSLRLSCAASGYTFSDNAMGWYRQAPGKEWELVAAISTGGSTNYADSVKGRFTISRDNAKNTVYLQMNSLKPEDTAVYYCATDAWSFGYNYVPLHYDYWGQGTQVTVSS", "polyreactivity (PSR sort gate)": "low polyreactivity"}
{"ENTRY SEQUENCE": "QVQLVESGGGLVQAGGSLRLSCAASGSTFTSNAMGWYRQAPGKERELVASISGSGGRTYYADSVKGRFTISRDNAKNTVYLQMNSLKPEDTAVYYCARRHSVRTVHGYDYWGQGTQVTVSS", "polyreactivity (PSR sort gate)": "low polyreactivity"}

Hey, can you go through the list below and give me polyreactivity (PSR sort gate) for every item?
1. QVQLVESGGGLVQAGGSLRLSCAASGRIFTRYAMGWYRPSPGKERELVAAISRNGGGTYYAESVKGRFTISRDNAKNTVYLQMNSLKPEDTAVYYCNAESTFVWGSYVRYDYWGQGTQVTVSS
2. QVQLVESGGGLVQAGGSLRLSCAASGSTFLPYVMGWYRQATGKERELVAAISRSGGRTYYADSVKGRFTISRDKAKNTVYLQMNRLKPEDTAVYYCNAVQRFYADYQPFAYWGQGTQLTVSS

1. low polyreactivity
2. high polyreactivity

Hey, can you go through the list below and give me polyreactivity (PSR sort gate) for every item?
1. QVQLVESGGGLVQAGGSLRLSCAASGGIDYTNAMGWYRQAPGKERELVAAIRKNGDSTNYADSVKGRFTISRDNAKNTVYLQMNSLKPEDTAVYYCNAELWPWAYDYWGQGTQVTVSS
2. QVQLVESGGGLVQAGGRLRLSCAASGRIFYNYAMGWYRQAPGKERELVAAISGSGGSTYYADSVKGRFTISRDNAKNTVYLQMNSLKPEDTAVYYCSTSGPQYYSRNFDYWGQGTQVTVSS
3. QVQLVESCGGLVHAGGSLRLSCAASGITLKWNDMGLYRQAPGKEREFVAAITGSTGSTFYADSVKGRFTISRDNAKNTVYLQMNSLKPEDTAVYYCAAGPWFYYWGQGTQVTVSS
4. QVQLVESGGGLVQAGGSLRLSCAASGRIFFTKAMGWYRQAPGKERELVAAISKSGARTYYADSVKGRFTISRDNAKNTVYLQMNSLKPEDTAVYYCAADVSVSGYYYWGQGTQVTVSS

low polyreactivity
low polyreactivity
low polyreactivity
high polyreactivity
